- Tested on: Phytophthora cactorum VKM F-985
- Protocol: Mycelial radial growth inhibition
- Type: cell-based
- Run parameters: Phytophthora cactorum, 120 h; 40 nmol/mL; age of the fungus 5 days; read-out: Inhibition value, I (%)
Parameter: inhibition of growth at 40 µM (%)
Value expressed in %; do not type the unit.

Example entries and their recorded answers appear below.
                                   molecule  reading_unit  number
0  O=C(C[n+]1ccccc1)NN=C1C(=O)N(Cc2ccccc2F)c2ccc(F)cc21.[Cl-] [Compound 5a]             %      53
1  Cc1ccc[n+](CC(=O)N/N=C2\C(=O)N(Cc3ccccc3F)c3ccccc32)c1C [Compound 7a]             %      45
2  Cc1ccc[n+](CC(=O)N/N=C2\C(=O)N(Cc3cccc(C(F)(F)F)c3)c3ccccc32)c1C [Compound 7c]             %      56

Read the entry O=C(C[n+]1ccccc1)NN=C1C(=O)N(Cc2cccc(C(F)(F)F)c2)c2ccc(F)cc21.[Cl-] [Compound 5c] and write its reported inhibition of growth at 40 µM. 64

Read the entry Cc1ccc[n+](CC(=O)N/N=C2\C(=O)N(Cc3c(F)cccc3Cl)c3ccccc32)c1C [Compound 7b] and write its reported inhibition of growth at 40 µM. 40

Read the entry Cc1ccc2c(c1)C(=NNC(=O)C[n+]1ccccc1)C(=O)N2Cc1cccc(C(F)(F)F)c1.[Cl-] [Compound 5e] and write its reported inhibition of growth at 40 µM. 38

Read the entry O=C(C[n+]1ccccc1)NN=C1C(=O)N(Cc2c(F)c(F)c(F)c(F)c2F)c2ccc(F)cc21.[Cl-] [Compound 5d] and write its reported inhibition of growth at 40 µM. 43

Read the entry O=C(C[n+]1ccccc1)NN=C1C(=O)N(Cc2c(F)cccc2Cl)c2ccc(F)cc21.[Cl-] [Compound 5b] and write its reported inhibition of growth at 40 µM. 50

---

- Tested on: Fusarium oxysporum IBPPM 543
- Protocol: Mycelial radial growth inhibition
- Assay type: cell-based
- Run parameters: Fusarium oxysporum, IBPPM543, 168 h; 5 nmol/mL; age of the fungus 7 days; read-out: Inhibition value, I (%)
Parameter inhibition of growth at 5 µM: see the listing below.
Value expressed in %; do not type the unit.

Example entries and their recorded answers appear below.
>>> df
                              smiles_record  number
0  Cc1ccc[n+](CC(=O)N/N=C2\C(=O)N(Cc3ccccc3F)c3ccccc32)c1C      41
1  O=C(C[n+]1ccccc1)NN=C1C(=O)N(Cc2c(F)cccc2Cl)c2ccc(F)cc21.[Cl-]      25

Read the entry O=C(C[n+]1ccccc1)NN=C1C(=O)N(Cc2cccc(C(F)(F)F)c2)c2ccc(F)cc21.[Cl-] and write its reported inhibition of growth at 5 µM. 28

Read the entry O=C(C[n+]1ccccc1)NN=C1C(=O)N(Cc2c(F)c(F)c(F)c(F)c2F)c2ccc(F)cc21.[Cl-] and write its reported inhibition of growth at 5 µM. 23

---

- System: Fusarium oxysporum IBPPM 543
- Protocol: Mycelial radial growth inhibition
- Format: cell-based
- Run parameters: Fusarium oxysporum, IBPPM543, 168 h; 1 nmol/mL; age of the fungus 7 days; read-out: Inhibition value, I (%)
Parameter: inhibition of growth at 1 µM

Example entries and their recorded answers appear below.
>>> print(df.to_string())
                              smiles_record               subject_of_test  result
0  Cc1ccc2c(c1)C(=NNC(=O)C[n+]1ccccc1)C(=O)N2Cc1cccc(C(F)(F)F)c1.[Cl-]  Fusarium oxysporum IBPPM 543     33%
1  O=C(C[n+]1ccccc1)NN=C1C(=O)N(Cc2ccccc2F)c2ccc(F)cc21.[Cl-]  Fusarium oxysporum IBPPM 543     20%
2  O=C(C[n+]1ccccc1)NN=C1C(=O)N(Cc2c(F)c(F)c(F)c(F)c2F)c2ccc(F)cc21.[Cl-]  Fusarium oxysporum IBPPM 543     10%
3  Cc1ccc[n+](CC(=O)N/N=C2\C(=O)N(Cc3cccc(C(F)(F)F)c3)c3ccccc32)c1C  Fusarium oxysporum IBPPM 543     15%
4  Cc1ccc[n+](CC(=O)N/N=C2\C(=O)N(Cc3ccccc3F)c3ccccc32)c1C  Fusarium oxysporum IBPPM 543      8%
5  O=C(C[n+]1ccccc1)NN=C1C(=O)N(Cc2cccc(C(F)(F)F)c2)c2ccc(F)cc21.[Cl-]  Fusarium oxysporum IBPPM 543     13%
6  O=C(C[n+]1ccccc1)NN=C1C(=O)N(Cc2c(F)cccc2Cl)c2ccc(F)cc21.[Cl-]  Fusarium oxysporum IBPPM 543      9%

Next item in the queue.
Jot down inhibition of growth at 1 µM (Fusarium oxysporum IBPPM 543) of Cc1ccc[n+](CC(=O)N/N=C2\C(=O)N(Cc3c(F)cccc3Cl)c3ccccc32)c1C . 10%
